B1: PBXIP1 (parent)
chain: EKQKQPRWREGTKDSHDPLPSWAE

Variants of: B1
experimental_details: protein stability index of a GFP-peptide fusion (GPS, HEK-293T) (PSI 1-6); higher = more stable;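 note: lentivirally expressed fusions sorted by FACS into six bins by GFP to DsRed ratio, PSI derived from sequencing read proportions per bin multiplied by bin number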
assay_setup: c terminus: a fixed tail appended
protein stability index values for the variants below.

{"variant": "R7H", "protein stability index": 2.05}
{"variant": "L19D", "protein stability index": 1.99}

# evaluate next
Incoming: Look up protein stability index: K2D
Outgoing: 2.04
